Recorded values, source patent US9617226B2.

Test system human vasopressin V1b receptor (Homo sapiens (Human)), Ki listed for each of the molecules.

Qu. Field: Ki (human vasopressin V1b receptor (Homo sapiens (Human))). Entry: CC(C)NC(=O)Cn1c(-c2cccc(Cl)c2)nc2ccc([C@H]3C[C@@H](CN4C5CCC4CC(O)C5)C3)cc2c1=O (relative stereo) [Example 23]
Ans. 1 to 10 nM

Qu. human vasopressin V1b receptor (Homo sapiens (Human)) / Ki / CC(C)NC(=O)Cn1c(-c2cccc(Cl)c2)nc2ccc([C@H]3C[C@@H](CN4CCC(C#N)CC4)C3)cc2c1=O [Example 7] : value?
Ans. 10 to 100 nM

Qu. GET /values?readout=Ki&system=human vasopressin V1b receptor (Homo sapiens (Human))&item= CC(C)NC(=O)Cn1c(-c2cccc(Cl)c2)nc2ccc([C@H]3C[C@@H](CN4CC(O)C4)C3)cc2c1=O [Example 40]
Ans. 1 to 10 nM

Qu. Test system human vasopressin V1b receptor (Homo sapiens (Human)); read-out Ki; what value for CC(C)NC(=O)Cn1c(-c2cccc(Cl)c2)nc2ccc([C@H]3C[C@@H](CN4CC[C@H](C)C4)C3)cc2c1=O [Example 24] ?
Ans. 10 to 100 nM

* * *

Consider the following molecules; for each one, report its Ki.

Qu. # value lookup — system UniProtKB P47901, readout Ki, item "CC(C)NC(=O)Cn1c(-c2cccc(Cl)c2)nc2ccc([C@H]3C[C@@H](CN4CCCCC4)C3)cc2c1=O"
Ans. 1 to 10 nM

Qu. What value of Ki on UniProtKB P47901 does "CC(C)NC(=O)Cn1c(-c2cccc(Cl)c2)nc2ccc([C@H]3C[C@@H](CN4CC[C@H](F)C4)C3)cc2c1=O" have?
Ans. 1 to 10 nM

Qu. For UniProtKB P47901, provide Ki of CC(C)NC(=O)Cn1c(-c2cccc(Cl)c2)nc2ccc(C3CC3CN3CCCCC3)cc2c1=O (centres unmarked) please.
Ans. 10 to 100 nM

Qu. Please provide the recorded Ki for CC(C)NC(=O)Cn1c(-c2cccc(Cl)c2)nc2ccc([C@H]3C[C@@H](CN4CCCC(F)C4)C3)cc2c1=O (relative stereo) , tested on UniProtKB P47901.
Ans. 1 to 10 nM

Qu. What reported Ki corresponds to "CC(C)NC(=O)Cn1c(-c2cccc(Cl)c2)nc2ccc([C@H]3C[C@@H](CN4CCCCCC4)C3)cc2c1=O" on UniProtKB P47901?
Ans. 1 to 10 nM

Qu. Request: Ki, test system UniProtKB P47901, entry "COC1CN(C[C@H]2C[C@@H](c3ccc4nc(-c5cccc(Cl)c5)n(CC(=O)NC(C)C)c(=O)c4c3)C2)C1"
Ans. 10 to 100 nM

Qu. Please tell me: Ki of "C[C@@H](NC(=O)Cn1c(-c2cccc(Cl)c2)nc2ccc([C@H]3C[C@@H](CN4CCCCC4)C3)cc2c1=O)C(F)(F)F" , system UniProtKB P47901?
Ans. 10 to 100 nM

Qu. Find Ki (UniProtKB P47901) for the entry "CC(C)NC(=O)Cn1c(-c2cccc(Cl)c2)nc2ccc([C@H]3C[C@@H](CN4CC(F)C4)C3)cc2c1=O"
Ans. 1 to 10 nM

Qu. Param readout = Ki; param system = UniProtKB P47901; param query = "CC(C)NC(=O)Cn1c(-c2cccc(Cl)c2)nc2ccc([C@H]3C[C@@H](CN4CCOCC4)C3)cc2c1=O" ; response: value
Ans. 1 to 10 nM

Qu. Recall the recorded Ki for "CC(C)NC(=O)Cn1c(-c2cccc(Cl)c2)nc2ccc([C@H]3C[C@@H](CN4CCCOCC4)C3)cc2c1=O" with UniProtKB P47901 and state it.
Ans. 1 to 10 nM

Qu. Param readout= Ki; system= UniProtKB P47901; entry= "COC1CCN(C[C@H]2C[C@@H](c3ccc4nc(-c5cccc(Cl)c5)n(CC(=O)NC(C)C)c(=O)c4c3)C2)CC1" ; returns value.
Ans. 1 to 10 nM

Qu. Param readout = Ki; param system = UniProtKB P47901; param query = CC(C)NC(=O)Cn1c(-c2cccc(Cl)c2)nc2ccc(C3CC3CCN3CCCCC3)cc2c1=O (centres unmarked) ; response: value
Ans. 10 to 100 nM

Qu. Could you share what Ki was measured for CC(C)NC(=O)Cn1c(-c2cccc(Cl)c2)nc2ccc([C@H]3C[C@@H](CN4CCCC(C#N)C4)C3)cc2c1=O (relative stereo) , tested on UniProtKB P47901?
Ans. 1 to 10 nM

Qu. Write down the reported Ki of "CC(C)NC(=O)Cn1c(-c2cccc(Cl)c2)nc2ccc([C@H]3C[C@H](CN4CCCCC4)C3)cc2c1=O" , test system: UniProtKB P47901.
Ans. 10 to 100 nM
